- Condition Label: 293.15 K, Ring tensiometer
Readout Label: surface tension liquid-gas (mN/m)
Only the number, expressed in mN/m, is required.

response.value for CCCCCC [hexane] (field: surface tension liquid-gas) = 18.56

Looking up OC1CCCCC1 [cyclohexanol] , I found its surface tension liquid-gas recorded as 33.15

Note to self: surface tension liquid-gas recorded for CCCCCCCCCCCC [dodecane] was 24.28

====

- Condition Label: 298.15 K, Ring tensiometer
Outcome label depends on surface tension liquid-gas relative to 20 mN/m: at/above gives 1.0, below gives 0.0.

Answered cases to consult:
Smiles Representation	Class Name
CCCCCCCCC	1.0
C1CCCCC1	1.0
OC1CCCCC1	1.0

## Input Is the recorded value of surface tension liquid-gas equal to or greater than 20 mN/m for this compound? CCCCCCCCCCCC
## Output 1.0

## Input Assess whether reported surface tension liquid-gas for CCCCCC sits at 20 mN/m or higher.
## Output 0.0

====

- Condition Label: 323.15 K, Ring tensiometer
Threshold 20 mN/m. surface tension liquid-gas below it: fulfilled. surface tension liquid-gas at it or above: not fulfilled.

# count of solved cases: 3
Compound	Class Name
CCCCCCC [heptane]	fulfilled
OC1CCCCC1 [cyclohexanol]	not fulfilled
CCCCCCCCCCCC [dodecane]	not fulfilled

Please look at the following compound next.
## Input Is the reported surface tension liquid-gas for C1CCCCC1 [cyclohexane] strictly below 20 mN/m?
## Output not fulfilled

====

- Condition Label: 303.15 K, Ring tensiometer
Numbers after ± are expanded uncertainties.
Readout Label: surface tension liquid-gas
Give the figure together with its unit, number first.

Reference set (3 entries):
Compound	surface tension liquid-gas
OC1CCCCC1 [cyclohexanol]	32.35 ± 0.48 mN/m
C1CCCCC1 [cyclohexane]	23.87 ± 0.38 mN/m
CCCCCC [hexane]	17.44 ± 0.3 mN/m

Record CCCCCCC [heptane] , field surface tension liquid-gas: 19.1 ± 0.32 mN/m

Briefly, surface tension liquid-gas measured for CCCCCCCCCCCC [dodecane] : 23.38 ± 0.37 mN/m

CCCCCCCCC [nonane] yielded surface tension liquid-gas of 22.04 ± 0.35 mN/m

====

- Condition Label: 308.15 K, Ring tensiometer
Record Satisfied whenever surface tension liquid-gas is at 20 mN/m or higher; record Not satisfied when lower.

Compound	Class Name
CCCCCCCCCCCC [dodecane]	Satisfied
C1CCCCC1 [cyclohexane]	Satisfied
CCCCCC [hexane]	Not satisfied
CCCCCCC [heptane]	Not satisfied

## Input Test whether the compound CCCCCCCCC [nonane] records surface tension liquid-gas of 20 mN/m or higher.
## Output Satisfied

## Input Could you please find out whether OC1CCCCC1 [cyclohexanol] has surface tension liquid-gas that meets 20 mN/m or exceeds it?
## Output Satisfied

====

- Condition Label: 293.15 K, Ring tensiometer
compounds and their reported surface tension liquid-gas
Please state the figure in mN/m; there is no need to write the unit.

Please review the following examples before continuing.
Smiles Representation	Readout Label	Readout Value
CCCCCCCCC	surface tension liquid-gas	23.04
CCCCCCC	surface tension liquid-gas	20.05

# ---- query compound ----
Memo: C1CCCCC1 , reported surface tension liquid-gas: 25.06
